These entries and their values trace back to patent US7622471B2.

- Target Under Test: cyclooxygenase-2 (COX-2) (Homo sapiens, UniProt P35354)
- Construct: purchased Cayman Chemical Company 560101 and 560121
- Sequence (P35354 18-604): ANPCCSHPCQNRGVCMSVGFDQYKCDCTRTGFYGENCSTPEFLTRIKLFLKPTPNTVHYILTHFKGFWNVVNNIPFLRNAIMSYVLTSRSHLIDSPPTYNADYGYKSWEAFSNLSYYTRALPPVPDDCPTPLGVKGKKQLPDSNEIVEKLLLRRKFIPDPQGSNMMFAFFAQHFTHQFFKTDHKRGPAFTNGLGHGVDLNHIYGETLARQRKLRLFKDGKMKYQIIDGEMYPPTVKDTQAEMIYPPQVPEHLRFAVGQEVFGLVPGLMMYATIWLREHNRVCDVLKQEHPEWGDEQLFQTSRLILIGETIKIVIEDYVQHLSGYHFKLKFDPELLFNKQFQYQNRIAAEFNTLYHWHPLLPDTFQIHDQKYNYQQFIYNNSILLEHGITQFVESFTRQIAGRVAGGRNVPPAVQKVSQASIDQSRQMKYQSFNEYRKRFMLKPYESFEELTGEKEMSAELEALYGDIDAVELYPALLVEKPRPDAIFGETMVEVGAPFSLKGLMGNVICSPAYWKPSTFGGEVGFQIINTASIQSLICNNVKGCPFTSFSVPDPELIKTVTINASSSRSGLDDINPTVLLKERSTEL
- Experiment Notes: Inhibitory effect on COX-2 (COX Inhibitor Screening Assay Kit, PGF2α ELISA)
- Format: biochemical
- Particulars: 50 μM compound
Entries and their Inhibitory effect against COX-2 at 50 μM (% inhibition)
Report the value in % inhibition with no unit label.

Worked examples, 6 compounds total:
# Smiles, Units Of Measure, Reported Result
measured = [
    ("COc1cnc(-n2nc(C(=O)N3CCN(C)CC3)cc2-c2ccccn2)cn1", "% inhibition", 8.8),
    ("COc1ccc(-n2nc(C(=O)N3CCN(C)CC3)cc2-c2ccccn2)nn1", "% inhibition", 10.5),
    ("COc1ccnc(-c2cc(C(=O)N3CCN(C)CC3)nn2-c2ccc(OC)nc2)c1", "% inhibition", "−0.1"),
    ("COc1ccc(-n2nc(C(=O)N3CCC(F)(F)CC3)cc2-c2ccccn2)nn1", "% inhibition", 3.4),
    ("COc1ccc(-n2nc(C(=O)N3CCN(C)C(=O)C3)cc2-c2ccccn2)cn1", "% inhibition", 3.4),
    ("COc1ccc(-n2nc(C(=O)N3CCN(C)CC3)cc2-c2ccccc2)cn1", "% inhibition", "−2.6"),
]

Here's the next entry for you.
Looking up COc1ccc(-n2nc(C(=O)N3CCCCC3)cc2-c2ccccn2)nn1 , I see its Inhibitory effect against COX-2 at 50 μM (% inhibition) listed as 4.5
